Molecular target: T1, HLA-A2/E6 (29-38) tetramer (human; HPV 16)
T1 construct: also called E6(29-38) peptide-MHC tetramer; E6(29-38)-loaded tetramer
Experiment: tetramer flow cytometry; transfected 1:1 CD4+ and CD4+/CD8+ Jurkat-derived cells;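 also: cell mixtures transiently transfected with TCR-encoding plasmids, analysed by flow cytometry 48 h later after HLA-A*02:01 E6 tetramer staining combined with anti-CD8 antibody co-staining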
Values of % cells in E6 tet+/CD8+ quadrant greater than or equal to 40% map to rule met; values below map to rule not met.

## Input Check the entry TCR 27 (codon optimized, cysteine modified version) (TCR, V domains shown) V domain 1: DAKTTQPNSMESNEEEPVHLPCNHSTISGTDYIHWYRQLPSQGPEYVIHGLTSNVNNRMASLAIAEDRKSSTLILHRATLRDAAVYYCILRVPPQSGGYQKVTFGTGTKLQVIP V domain 2: NAGVTQTPKFQVLKTGQSMTLQCAQDMNHNSMYWYRQDPGMGLRLIYYSASEGTTDKGEVPNGYNVSRLNKREFSLRLESAAPSQTSVYFCASSEFGSLNEKLFFGSGTQLSVLE : does % cells in E6 tet+/CD8+ quadrant equal or exceed 40%?
## Output rule not met

## Input Would you say TCR 19 (codon optimized, cysteine modified version) (TCR, V domains shown) V domain 1: AQKITQTQPGMFVQEKEAVTLDCTYDTSDQSYGLFWYKQPSSGEMIFLIYQGSYDEQNATEGRYSLNFQKARKSANLVISASQLGDSAMYFCAMRENTGTASKLTFGTGTRLQVTL V domain 2: DVKVTQSSRYLVKRTGEKVFLECVQDMDHENMFWYRQDPGLGLRLIYFSYDVKMKEKGDIPEGYSVSREKKERFSLILESASTNQTSMYLCASSSWGQSTGEQYFGPGTRLTVTE shows % cells in E6 tet+/CD8+ quadrant at minimum 40%?
## Output rule not met

## Input Quick check: does TCR 17 (codon optimized, cysteine modified version) (TCR, V domains shown) V domain 1: AQKITQTQPGMFVQEKEAVTLDCTYDTSDPSYGLFWYKQPSSGEMIFLIYQGSYDQQNATEGRYSLNFQKARKSANLVISASQLGDSAMYFCAMREGRGDKIIFGKGTRLHILP V domain 2: DVKVTQSSRYLVKRTGEKVFLECVQDMDHENMFWYRQDPGLGLRLIYFSYDVKMKEKGDIPEGYSVSREKKERFSLILESASTNQTSMYLCASSLWGRSNQPQHFGDGTRLSILE have % cells in E6 tet+/CD8+ quadrant greater than or equal to 40%?
## Output rule not met

## Input Would you say TCR 26 (codon optimized, cysteine modified version) (TCR, V domains shown) V domain 1: AQKITQTQPGMFVQEKEAVTLDCTYDTSDQSYGLFWYKQPSSGEMIFLIYQGSYDEQNATEGRYSLNFQKARKSANLVISASQLGDSAMYFCAMRDARNNDMRFGAGTRLTVKP V domain 2: NAGVTQTPKFRVLKTGQSMTLLCAQDMNHEYMYWYRQDPGMGLRLIHYSVGEGTTAKGEVPDGYNVSRLKKQNFLLGLESAAPSQTSVYFCASSYYASGRNYEQYFGPGTRLTVTE shows % cells in E6 tet+/CD8+ quadrant at minimum 40%?
## Output rule met

## Input Could you please find out whether TCR 16 (codon optimized, cysteine modified version) (TCR, V domains shown) V domain 1: KQEVTQIPAALSVPEGENLVLNCSFTDSAIYNLQWFRQDPGKGLTSLLLIQSSQREQTSGRLNASLDKSSGRSTLYIAASQPGDSATYLCAVRPANNNDMRFGAGTRLTVKP V domain 2: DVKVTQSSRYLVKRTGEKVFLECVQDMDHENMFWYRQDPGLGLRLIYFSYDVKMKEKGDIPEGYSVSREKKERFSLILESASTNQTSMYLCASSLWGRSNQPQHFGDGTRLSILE has % cells in E6 tet+/CD8+ quadrant that meets 40% or exceeds it?
## Output rule not met

# credit: patent US20190225692A1
